system: MDA-MB-231RR cells; test: XTT cell viability assay and IC50 determination; assay type: cell-based, human; conditions: Homo sapiens, 48 h, XTT, ± SD, read-out: IC50-48
pIC50: −log10 of the molar value.
Assay Readout: pIC50

Compound | Tested System | Assay Readout | Recorded Measurement
O=C(CN1CCN(c2cccc(Cl)c2)CC1)N[C@@H]1CCOc2ccccc21 [P8] | MDA-MB-231RR cells | pIC50 | 3.81

----------
assay: Apoptosis/necrosis assay (Annexin V–propidium iodide, flow cytometry); format: cell-based, human; settings: human, MCF-10A cells, 24 h at IC50-24, flow cytometry

Compound | viability at 24 h (%)
O=C(CN1CCN(c2cccc(Cl)c2)CC1)N[C@@H]1CCOc2ccccc21 [P8] | 94.3
